# tested system: Activin receptor type-1 (Homo sapiens, UniProt Q04771, R206H)
# Sequence (Q04771 21-509 R206H limits assumed): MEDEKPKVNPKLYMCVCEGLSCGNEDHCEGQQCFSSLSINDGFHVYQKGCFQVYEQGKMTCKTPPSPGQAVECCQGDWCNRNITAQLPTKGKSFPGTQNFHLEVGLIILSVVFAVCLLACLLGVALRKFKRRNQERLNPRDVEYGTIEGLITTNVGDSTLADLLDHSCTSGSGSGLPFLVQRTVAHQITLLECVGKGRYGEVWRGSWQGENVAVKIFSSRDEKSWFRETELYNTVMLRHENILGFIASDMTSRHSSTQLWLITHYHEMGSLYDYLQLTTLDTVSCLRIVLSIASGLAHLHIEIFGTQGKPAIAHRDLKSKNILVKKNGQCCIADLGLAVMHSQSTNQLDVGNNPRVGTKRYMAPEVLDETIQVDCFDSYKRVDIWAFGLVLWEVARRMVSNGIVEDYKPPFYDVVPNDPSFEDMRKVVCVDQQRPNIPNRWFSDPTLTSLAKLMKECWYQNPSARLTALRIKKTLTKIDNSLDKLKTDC
# test details: Inhibition of ALK2 R206H mutant (unknown origin) transfected in BMP6-stimulated human HEK293 cells by luciferase reporter gene assay
# Type: cell-based
metric name: IC50 (µM)
Report the figure in µM without appending any unit label.

What IC50 value was documented for this compound, Nc1ncc(-c2ccc(CN3CCC(N4CCOCC4)CC3)cc2Cl)nc1C(=O)NC12CCC(O)(CC1)CC2 ?
0.044

----------
I'd appreciate it if you could supply CLH values for the items below.
# test details: Microsomal stability in mouse liver microsomes assessed as clearance
# Format: ADME, Microsome

Reported CLH for Nc1ncc(-c2ccc(CN3CCC(N4CCCC4)CC3)cc2)nc1C(=O)N[C@H]1CC[C@H](O)CC1 (stereo in doubt; 18) : what is it?
< 10 µL/min/mg

Returns the measured CLH for the input molecule. Input: CCN(CC)C1CCN(Cc2ccc(-c3cnc(N)c(C(=O)N[C@H]4CC[C@H](O)CC4)n3)cc2)CC1
< 10 µL/min/mg

Which value of CLH has been reported for C[C@@](O)(CNC(=O)c1nc(-c2ccc(CN3CCNCC3)cc2)cnc1N)C(F)(F)F in the records?
< 10 µL/min/mg

The measurements presented in this section are drawn from ChEMBL document CHEMBL5120784.
